# MEASUREMENT TARGET: Protein deacetylase HDAC6 (Homo sapiens)
# ASSAY: Inhibition of recombinant human full length HDAC6 using Boc-Lys (Ac)-AMC as substrate incubated for 120 mins by fluorescence analysis
pIC50: −log10 of the molar value.
Label rule, in plain words: pIC50 of 7 and up is y, under 7 is n.

Previously resolved entries follow.
{"SMILES RECORD": "COc1cc2c(cc1OCc1ccccc1)CN1C(=O)CC[C@H]1C(=O)N2Cc1ccc(C(=O)NO)cc1", "CLASSIFICATION": "y"}
{"SMILES RECORD": "COc1cc2c(cc1OCc1ccccc1)CN1C(=O)CC[C@H]1C(=O)N2CCCCCCCC(=O)NO", "CLASSIFICATION": "n"}
{"SMILES RECORD": "COc1cc2c(cc1O)CN1C(=O)CC[C@H]1C(=O)N2CCCCCC(=O)NO", "CLASSIFICATION": "y"}
{"SMILES RECORD": "CC(=O)O.O=C(NO)c1ccc(CN2C(=O)[C@@H]3CCCN3Cc3ccccc32)cc1", "CLASSIFICATION": "y"}

Assess whether reported pIC50 for COc1cc2c(cc1O)CN1C(=O)CC[C@H]1C(=O)N2CCCCCCC(=O)NO sits at 7 or higher.
y

Check the entry COc1cc2c(cc1O)CN1C(=O)CC[C@H]1C(=O)N2Cc1ccccc1C(=O)NO : does pIC50 equal or exceed 7?
n

Item O=C(NO)c1cccc(CN2C(=O)[C@@H]3CCCN3Cc3ccccc32)c1 with pIC50 of 7 or above?
n

Test whether the compound COc1cc2c(cc1OCc1ccccc1)CN1C(=O)CC[C@H]1C(=O)N2Cc1ccc(CC(=O)NO)cc1 records pIC50 of 7 or higher.
y

Is pIC50 for COc1cc2c(cc1O)CN1C(=O)CC[C@H]1C(=O)N2CCCCCCCC(=O)NO at or above 7?
n

Dear colleague, could you confirm whether O=C(CCCCCN1C(=O)[C@@H]2CCCN2Cc2ccccc21)NO has pIC50 at or above 7?
y

Assess whether reported pIC50 for O=C(CCCCCCCN1C(=O)[C@@H]2CCC(=O)N2Cc2ccccc21)NO sits at 7 or higher.
y

---

# MEASUREMENT TARGET: Histone deacetylase 1 (Homo sapiens)
# Sequence (Q13547 whole entry): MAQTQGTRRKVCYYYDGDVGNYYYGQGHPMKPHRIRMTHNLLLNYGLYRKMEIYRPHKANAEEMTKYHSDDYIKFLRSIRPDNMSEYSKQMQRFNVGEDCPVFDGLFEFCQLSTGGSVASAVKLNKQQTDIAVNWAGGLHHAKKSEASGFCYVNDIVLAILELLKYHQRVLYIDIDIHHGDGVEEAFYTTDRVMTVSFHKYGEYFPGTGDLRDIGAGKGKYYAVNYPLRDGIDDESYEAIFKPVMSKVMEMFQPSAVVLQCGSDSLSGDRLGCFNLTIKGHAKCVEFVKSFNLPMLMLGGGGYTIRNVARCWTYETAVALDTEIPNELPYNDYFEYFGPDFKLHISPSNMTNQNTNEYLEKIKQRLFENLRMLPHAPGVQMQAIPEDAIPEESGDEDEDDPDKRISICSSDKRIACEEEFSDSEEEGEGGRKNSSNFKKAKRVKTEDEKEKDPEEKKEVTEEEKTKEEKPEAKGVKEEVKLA
# ASSAY: Inhibition of human HDAC1 incubated for 10 mins and measured after 30 mins by ELISA
PROPERTY MEASURED: IC50 (nM)
Entry rule: numbers only, all in nM.

Memo: O=C(CCCCCCCN1C(=O)[C@@H]2CCC(=O)N2Cc2ccccc21)NO , reported IC50: 789

---

# ASSAY: Half life in human liver microsomes at 100 uM by LC-MS/MS analysis
# Type: ADME, Microsome
PROPERTY MEASURED: half-life at 100 µM (min)
Please state the figure in min; there is no need to write the unit.

Per the record, O=C(O)Cc1ccccc1Nc1c(Cl)cccc1Cl [DICLOFENAC] has half-life at 100 µM of 5.3

---

Here the recorded pIC50 is given for each entry.
# MEASUREMENT TARGET: Histone deacetylase 2 (Homo sapiens)
# Sequence (Q92769 whole entry): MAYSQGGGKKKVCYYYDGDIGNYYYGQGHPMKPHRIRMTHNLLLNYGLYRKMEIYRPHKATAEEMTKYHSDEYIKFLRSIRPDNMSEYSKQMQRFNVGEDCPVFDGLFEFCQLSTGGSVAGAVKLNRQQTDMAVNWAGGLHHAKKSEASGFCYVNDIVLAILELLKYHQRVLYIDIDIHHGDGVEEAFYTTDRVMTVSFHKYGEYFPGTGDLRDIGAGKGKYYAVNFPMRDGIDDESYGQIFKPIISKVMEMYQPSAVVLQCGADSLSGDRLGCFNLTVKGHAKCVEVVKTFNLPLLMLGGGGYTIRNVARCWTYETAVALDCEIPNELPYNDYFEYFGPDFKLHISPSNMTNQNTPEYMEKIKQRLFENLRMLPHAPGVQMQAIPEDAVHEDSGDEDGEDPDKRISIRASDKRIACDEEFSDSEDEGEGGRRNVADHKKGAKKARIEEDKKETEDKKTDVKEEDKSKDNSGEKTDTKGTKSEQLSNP
# ASSAY: Inhibition of recombinant human full length HDAC2 using Boc-Lys (Ac)-AMC as substrate incubated for 120 mins by fluorescence analysis
// pIC50 is dimensionless: -log10 of concentration (M)

{"SMILES RECORD": "CC(=O)O.O=C(NO)c1ccc(CN2C(=O)[C@@H]3CCCN3Cc3ccccc32)cc1", "VALUE MEASURED": 5.50}

Param item: O=C(CCCCCN1C(=O)[C@@H]2CCCN2Cc2ccccc21)NO ; param system: Histone deacetylase 2 (Homo sapiens); output pIC50: 5.57

---

# MEASUREMENT TARGET: UniProtKB Q9UBN7
# Sequence (Q9UBN7 whole entry): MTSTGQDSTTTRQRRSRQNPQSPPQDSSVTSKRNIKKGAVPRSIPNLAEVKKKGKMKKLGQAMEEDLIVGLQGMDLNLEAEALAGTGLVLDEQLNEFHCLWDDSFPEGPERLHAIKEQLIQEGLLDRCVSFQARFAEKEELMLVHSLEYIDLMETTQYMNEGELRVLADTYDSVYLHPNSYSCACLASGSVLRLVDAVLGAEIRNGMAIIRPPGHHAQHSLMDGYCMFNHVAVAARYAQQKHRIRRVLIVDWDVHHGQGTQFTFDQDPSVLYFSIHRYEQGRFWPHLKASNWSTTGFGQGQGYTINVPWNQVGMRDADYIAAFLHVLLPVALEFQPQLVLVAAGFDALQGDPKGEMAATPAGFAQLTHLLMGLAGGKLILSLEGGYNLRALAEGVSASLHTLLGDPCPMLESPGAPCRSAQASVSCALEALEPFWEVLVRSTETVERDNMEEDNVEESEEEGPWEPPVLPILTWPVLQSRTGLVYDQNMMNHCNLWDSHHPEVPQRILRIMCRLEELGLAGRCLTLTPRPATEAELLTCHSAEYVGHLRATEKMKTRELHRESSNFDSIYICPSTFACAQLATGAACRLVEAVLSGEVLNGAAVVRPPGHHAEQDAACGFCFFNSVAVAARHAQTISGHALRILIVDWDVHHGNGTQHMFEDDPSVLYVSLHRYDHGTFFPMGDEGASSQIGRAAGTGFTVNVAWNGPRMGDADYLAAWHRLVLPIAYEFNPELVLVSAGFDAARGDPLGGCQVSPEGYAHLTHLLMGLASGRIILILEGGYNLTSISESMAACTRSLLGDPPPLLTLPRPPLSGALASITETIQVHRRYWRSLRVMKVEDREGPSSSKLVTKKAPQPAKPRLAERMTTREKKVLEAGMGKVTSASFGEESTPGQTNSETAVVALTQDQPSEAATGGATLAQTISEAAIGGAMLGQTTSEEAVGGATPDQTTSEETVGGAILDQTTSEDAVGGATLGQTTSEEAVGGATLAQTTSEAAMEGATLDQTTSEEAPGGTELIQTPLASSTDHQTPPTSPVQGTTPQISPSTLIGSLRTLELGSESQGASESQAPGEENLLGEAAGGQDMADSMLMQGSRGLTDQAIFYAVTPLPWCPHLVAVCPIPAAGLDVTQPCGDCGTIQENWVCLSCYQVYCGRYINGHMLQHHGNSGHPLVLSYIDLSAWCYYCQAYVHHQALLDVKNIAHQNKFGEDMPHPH
# ASSAY: Inhibition of human HDAC6 using Ac-Lys (Ac)-AMC as substrate incubated for 120 mins by fluorescence analysis
PROPERTY MEASURED: IC50 (nM)
Give the number; nM is assumed, so skip it.

Reported IC50 of O=C(CCCCCCCN1C(=O)[C@@H]2CCC(=O)N2Cc2ccccc21)NO : 21.4

---

# ASSAY: Stability of compound in human liver microsomes assessed as remaining parent compound at 100 uM incubated after 60 mins by LC-MS/MS analysis
# Format: ADME, Microsome
# MEASUREMENT PARAMETERS: read-out: Stability
PROPERTY MEASURED: remaining at 1 h, 100 µM (%)
Lab book: enter the figure in %, no units written.

get_value(item= CC(=O)O.O=C(NO)c1ccc(CN2C(=O)[C@@H]3CCCN3Cc3ccccc32)cc1 , readout=remaining at 1 h, 100 µM) returns 77.4

---

# MEASUREMENT TARGET: Histone deacetylase 4 (Homo sapiens)
# Sequence (P56524 whole entry): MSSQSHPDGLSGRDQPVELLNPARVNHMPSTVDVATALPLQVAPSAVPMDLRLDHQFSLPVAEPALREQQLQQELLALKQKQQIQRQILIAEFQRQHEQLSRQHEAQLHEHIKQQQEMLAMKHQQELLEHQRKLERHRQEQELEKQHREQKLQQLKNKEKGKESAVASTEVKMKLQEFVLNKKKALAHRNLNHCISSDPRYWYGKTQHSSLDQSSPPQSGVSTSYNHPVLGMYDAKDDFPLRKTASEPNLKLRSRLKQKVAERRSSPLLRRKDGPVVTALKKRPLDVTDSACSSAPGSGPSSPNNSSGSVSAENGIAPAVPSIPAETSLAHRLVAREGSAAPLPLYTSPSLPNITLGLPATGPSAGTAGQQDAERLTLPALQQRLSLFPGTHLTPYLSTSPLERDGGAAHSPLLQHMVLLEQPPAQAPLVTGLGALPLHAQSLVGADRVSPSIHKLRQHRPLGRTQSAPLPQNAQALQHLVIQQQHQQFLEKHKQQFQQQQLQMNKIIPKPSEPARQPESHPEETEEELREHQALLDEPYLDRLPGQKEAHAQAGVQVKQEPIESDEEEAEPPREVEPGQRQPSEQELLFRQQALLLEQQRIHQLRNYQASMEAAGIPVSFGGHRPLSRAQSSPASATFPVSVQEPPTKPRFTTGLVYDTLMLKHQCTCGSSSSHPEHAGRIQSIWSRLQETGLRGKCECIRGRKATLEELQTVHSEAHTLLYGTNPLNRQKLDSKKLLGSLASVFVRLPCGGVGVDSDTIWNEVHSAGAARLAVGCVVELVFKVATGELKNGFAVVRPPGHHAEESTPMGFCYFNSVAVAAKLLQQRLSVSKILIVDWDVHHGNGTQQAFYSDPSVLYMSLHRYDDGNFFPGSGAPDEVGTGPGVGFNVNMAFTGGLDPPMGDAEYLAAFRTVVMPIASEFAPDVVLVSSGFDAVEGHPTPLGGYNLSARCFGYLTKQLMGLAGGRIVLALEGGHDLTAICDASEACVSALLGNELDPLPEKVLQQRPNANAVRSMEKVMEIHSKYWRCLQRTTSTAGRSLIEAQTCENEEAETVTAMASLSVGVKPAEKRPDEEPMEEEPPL
# ASSAY: Inhibition of recombinant human HDAC4 using Boc-Lys (Ac)-AMC as substrate incubated for 120 mins by fluorescence analysis
Parameter: IC50. Scope: all listed entries.
Give the value, in units of nM, as a plain number.

{"SMILES RECORD": "O=C(CCCCCN1C(=O)[C@@H]2CCCN2Cc2ccccc21)NO", "UNIT OF MEASURE": "nM", "VALUE MEASURED": 499}

From here, focus on the item given below.
The reported IC50 of the molecule CC(=O)O.O=C(NO)c1ccc(CN2C(=O)[C@@H]3CCCN3Cc3ccccc32)cc1 was 847

---

Reported IC50 values are given for each entry in this list.
# MEASUREMENT TARGET: UniProt Q96DB2
# Sequence (Q96DB2 whole entry): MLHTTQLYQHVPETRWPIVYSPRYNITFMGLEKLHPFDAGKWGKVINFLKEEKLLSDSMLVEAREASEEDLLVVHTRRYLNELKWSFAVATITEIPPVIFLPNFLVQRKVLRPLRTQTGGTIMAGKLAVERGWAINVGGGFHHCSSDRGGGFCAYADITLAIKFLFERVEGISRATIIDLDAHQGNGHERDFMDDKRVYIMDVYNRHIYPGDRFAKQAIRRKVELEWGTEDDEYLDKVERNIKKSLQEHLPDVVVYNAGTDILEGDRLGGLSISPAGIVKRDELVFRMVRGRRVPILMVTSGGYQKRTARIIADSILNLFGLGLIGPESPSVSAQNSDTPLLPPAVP
# ASSAY: Inhibition of recombinant human full length HDAC11 using Boc-Lys (Tfa)-AMC as substrate incubated for 120 mins by fluorescence analysis

{"SMILES RECORD": "CC(=O)O.O=C(NO)c1ccc(CN2C(=O)[C@@H]3CCCN3Cc3ccccc32)cc1", "VALUE MEASURED": "> 50 µM"}

// moving on: another record for IC50
Bench note, UniProt Q96DB2: entry O=C(CCCCCN1C(=O)[C@@H]2CCCN2Cc2ccccc21)NO , its IC50 = > 50 µM

---

# ASSAY: Stability of compound in human plasma assessed as remaining parent compound at 2 uM incubated for 120 mins by LC-MS/MS analysis
# Type: ADME, cell-free
# MEASUREMENT PARAMETERS: read-out: Stability
PROPERTY MEASURED: remaining at 2 h, 2 µM (%)
I only need the number, in %, no unit after it.

The compound CC(=O)O.O=C(NO)c1ccc(CN2C(=O)[C@@H]3CCCN3Cc3ccccc32)cc1 showed remaining at 2 h, 2 µM equal to 92.3
